Biological target: T1, 4H3381-bN
T1 chain: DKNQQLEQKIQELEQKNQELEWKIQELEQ
Assay: two-hybrid library CCNG1;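 further: natural log of median RNA to DNA barcode read ratio; higher means stronger binding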
attribute.measured: interaction score
Lab note: jot the number down without any unit.

Worked cases, answers included:
# binder, interaction score
measured = [
    ("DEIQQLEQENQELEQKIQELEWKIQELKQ [4H166-bN]", 0.0552),
    ("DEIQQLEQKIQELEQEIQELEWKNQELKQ [4H264-bN]", 0.605),
    ("DKNQQLEQKIQELEQKNQELEWKIQELEQ [4H3381-bN]", 0.302),
]

Here is the next item to consider.
Prompt: Name the reported interaction score value associated with the binder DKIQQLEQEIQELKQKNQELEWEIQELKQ [4H2162-bN]
Completion: -0.622

Origin of measurements: paper PMC10397247
